TEST_TARGET: PARP-1 (poly[ADP-ribose] polymerase 1) enzyme (Homo sapiens (Human), UniProt P09874)
Sequence (P09874 whole entry): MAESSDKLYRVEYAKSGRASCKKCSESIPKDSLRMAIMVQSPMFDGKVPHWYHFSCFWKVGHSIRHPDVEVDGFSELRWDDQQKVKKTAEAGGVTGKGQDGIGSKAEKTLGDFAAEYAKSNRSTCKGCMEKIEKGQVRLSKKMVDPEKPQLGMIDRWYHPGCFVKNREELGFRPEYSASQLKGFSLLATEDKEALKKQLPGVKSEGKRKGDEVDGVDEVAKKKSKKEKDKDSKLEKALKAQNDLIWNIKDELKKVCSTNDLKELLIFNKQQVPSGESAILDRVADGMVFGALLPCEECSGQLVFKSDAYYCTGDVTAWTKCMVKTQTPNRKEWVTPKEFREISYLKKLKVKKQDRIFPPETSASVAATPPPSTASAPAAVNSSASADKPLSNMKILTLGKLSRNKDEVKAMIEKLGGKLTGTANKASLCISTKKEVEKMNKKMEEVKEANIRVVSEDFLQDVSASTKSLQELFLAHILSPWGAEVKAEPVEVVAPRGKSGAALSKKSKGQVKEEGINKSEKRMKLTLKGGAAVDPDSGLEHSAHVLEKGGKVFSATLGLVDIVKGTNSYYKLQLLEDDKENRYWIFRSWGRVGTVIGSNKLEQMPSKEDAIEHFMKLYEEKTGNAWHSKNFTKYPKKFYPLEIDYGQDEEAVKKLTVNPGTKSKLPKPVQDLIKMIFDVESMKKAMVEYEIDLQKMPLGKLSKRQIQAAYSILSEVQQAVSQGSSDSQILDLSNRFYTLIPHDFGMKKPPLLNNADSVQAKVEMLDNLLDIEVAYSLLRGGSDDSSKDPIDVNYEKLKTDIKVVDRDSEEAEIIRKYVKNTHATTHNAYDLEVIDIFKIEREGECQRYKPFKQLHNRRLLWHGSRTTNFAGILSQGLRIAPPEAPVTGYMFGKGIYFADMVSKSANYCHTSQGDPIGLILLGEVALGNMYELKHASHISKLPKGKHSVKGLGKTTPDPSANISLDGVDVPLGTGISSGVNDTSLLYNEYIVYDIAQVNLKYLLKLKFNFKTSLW
ASSAY_PROTOCOL: PARP-1 (poly[ADP-ribose] polymerase 1) enzyme inhibitory ability, Trevigen assay kit
Type: biochemical
EXPERIMENTAL_PARAMETERS: 1 nM compound; read-out: PAR P-1 Inhibitory ability at 1 nM
Experimental: In order to evaluate the PARP-1 (poly[ADP-ribose] polymerase 1) enzyme inhibitory ability of the compounds according to the present invention, an experiment was conducted as follows. […]
QUANTITY_KIND: inhibition at 0.001 µM

The molecule `Cc1ccc(F)c2c(=O)[nH]c(CCCN3CCN(c4ccc(C#N)nc4)CC3)cc12` showed inhibition at 0.001 µM equal to < 50%

The molecule `N#Cc1ccc(F)c(N2CCN(C(=O)CCc3cc4cccc(F)c4c(=O)[nH]3)CC2)c1` showed inhibition at 0.001 µM equal to < 50%

The molecule `Cc1cc(F)cc2c(=O)[nH]c(CCC(=O)N3C4CCC3CN(c3ccc(F)nc3)C4)cc12` showed inhibition at 0.001 µM equal to < 50%

The molecule `N#Cc1ccc(N2CCN(C(=O)CCc3cc4ccc(F)cc4c(=O)[nH]3)CC2)cc1F` showed inhibition at 0.001 µM equal to < 50%
